# Test system: M14 melanoma
# Test Method Notes: NCI-60 one-dose screen, 48 h (100 = growth as untreated, 0 = no growth, -100 = all killed)
# Condition Info: 10 µM unless noted
Compounds without any hit were thinned out: in the full panel of roughly 83,000, 20% have a hit.
Listed next: entries and their corresponding growth.
Readout Kind: growth (%)

molecule=CSc1nc(Nc2cccc(NC(=O)/C(C#N)=C/c3c(Cl)cccc3Cl)c2)c(C#N)c(-c2cccc([N+](=O)[O-])c2)n1 readout_kind=growth units_label=% value_measured=22.6
molecule=O=C1/C(=C/c2ccc3c(c2)OCO3)SC(=S)N1CCc1ccc(O)cc1 readout_kind=growth units_label=% value_measured=94.4
molecule="CC(C)(C)N1CCC1CN (centres undefined)" readout_kind=growth units_label=% value_measured=101
molecule=O=C(N/N=C/c1c[nH]c2ccccc12)c1cc(-c2ccccc2)on1 readout_kind=growth units_label=% value_measured=88.6
molecule=O=C1C=C(O)C(=O)C(CC2=C(O)C(=O)C=C(O)C2=O)=C1O readout_kind=growth units_label=% value_measured=104
molecule=N#CN1CC[C@H](C(=O)Nc2cc3cc(C(N)=O)ccc3cn2)C1 readout_kind=growth units_label=% value_measured=-26.5
molecule=O=C1c2c(O)cc(O)cc2-c2c(-c3ccc(O)cc3)oc3cc(O)cc1c23 readout_kind=growth units_label=% value_measured=46.1
molecule=C=C1C(=O)O[C@H]2[C@H]1CC/C(COC(=O)c1cc3cc(OC)ccc3[nH]1)=C\CC[C@@]1(C)O[C@@H]21 readout_kind=growth units_label=% value_measured=-52.9
molecule=Cc1ncc(C(=O)Nc2ccc(CN3CCN(C)CC3)c(C(F)(F)F)c2)cc1C#Cc1cnc2cccnn12 readout_kind=growth units_label=% value_measured=-79.9
molecule=COc1ccc(/C=C2\Oc3cc(OCCCCN4CCCC4)ccc3C2=O)cc1 readout_kind=growth units_label=% value_measured=86.2
molecule=CCCCCC(=O)Oc1ccc(/C(=C(\C)c2ccc(OC)cc2)c2ccc(OCCN3CCCCC3)cc2)cc1 readout_kind=growth units_label=% value_measured=-39.2
molecule=CCN(CC)S(=O)(=O)c1ccc(OC)c(NC(=O)c2[nH]c(C)c3c2CCCCC3=O)c1 readout_kind=growth units_label=% value_measured=42.3
molecule=COc1cc(-c2ccc3c(c2)NC(=O)/C3=C\c2ccc[nH]2)ccc1O readout_kind=growth units_label=% value_measured=34.1
molecule=CC(C)(C)c1cc(C(C)(C)C)cc(S(=O)(=O)Nc2cc3ccccc3cc2C(=O)NCCN)c1 readout_kind=growth units_label=% value_measured=-59.9
molecule=O=C1/C(=C/c2ccc(OCCCOc3ccc(Cl)cc3)cc2)N=C2SCCCN12 readout_kind=growth units_label=% value_measured=95.9
molecule=Cn1ccnc1C(=O)/C=C/c1ccccc1 readout_kind=growth units_label=% value_measured=-1.9
molecule=CC(=O)O[C@H]1CC[C@]2(C)[C@H]3CC=C4[C@@H]5CC(C)(C)CC[C@]5(C(=O)NCCNCCN)CC[C@@]4(C)[C@]3(C)CC[C@H]2C1(C)C readout_kind=growth units_label=% value_measured=-81.4
molecule=COc1ccc(-n2nc(C)c3c(Nc4ccc(NC(=O)Nc5cccc(C(F)(F)F)c5)cc4)ncnc32)cc1 readout_kind=growth units_label=% value_measured=-0.151
molecule=O=c1ccccc(-c2ccc(-c3ccco3)cc2)c1O readout_kind=growth units_label=% value_measured=-2.99
